target: human CD3 (human, UniProt P07766 23-207; P04234 22-171; P09693 23-182); experiment: cell-based or functional assay
Sequence (P07766 23-207, chain 1 of 3): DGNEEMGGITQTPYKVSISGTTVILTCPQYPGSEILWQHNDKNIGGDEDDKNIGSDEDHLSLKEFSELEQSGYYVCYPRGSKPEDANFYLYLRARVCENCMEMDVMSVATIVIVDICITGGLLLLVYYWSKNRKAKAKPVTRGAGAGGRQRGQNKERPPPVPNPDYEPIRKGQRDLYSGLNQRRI
Sequence (P04234 22-171, chain 2 of 3): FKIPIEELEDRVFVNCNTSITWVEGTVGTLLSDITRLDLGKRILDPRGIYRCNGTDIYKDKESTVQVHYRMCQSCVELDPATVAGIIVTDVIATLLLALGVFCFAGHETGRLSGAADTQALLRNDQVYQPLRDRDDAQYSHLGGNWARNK
Sequence (P09693 23-182, chain 3 of 3): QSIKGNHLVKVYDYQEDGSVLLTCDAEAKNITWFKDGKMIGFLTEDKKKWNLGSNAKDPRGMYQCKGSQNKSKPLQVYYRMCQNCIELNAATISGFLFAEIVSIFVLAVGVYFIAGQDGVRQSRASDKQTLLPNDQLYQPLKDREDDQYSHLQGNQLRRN
// values below are reported CD8 EC50 (nM); CD69/CD25 on human T cells, plate-coated antibody
MEASURED_METRIC: CD8 EC50 (nM); CD69/CD25 on human T cells, plate-coated antibody

[[record]]
binder = "mAb 99 (antibody, V domains shown) VH: QGQLVESGGGVVQPGRSLRLSCAASGFTFRGFGMHWVRQAPGKGLEWVAIIYYDGKNKYYADSVKGRFTISRDNSKNTLYLQMNSLRAEDTAVYYCAKGGGYNWFDPWGQGTLVTVSS VL: DIQMTQSPSSLSASVGDRVTITCRASQSISTYLNWYQQKPGKAPKLLIYSASSLQSGVPSRFSGSGSGTDFTLTISNLQPEDFAIYYCQRSYSPPFTFGPGTKLDIR"
quantity_unit = "nM"
recorded_result = 12.1

[[record]]
binder = "mAb 130 (antibody, V domains shown) VH: EVQLVESGGGLVKTGGSLRLSCVASGFSFKKAWMNWVRQAPGKGLEWVGRIKRNSDGGATDYAAPVKDRFTLSRDDSKNTLYLQMNSLKTEDTAVYYCTTLDSSSWYVGYYYMDVWGKGTTVTVSS VL: DIHMTQSPSSVSASLGDRVTFTCRASQDINNWLAWYQQRPGKAPKLLIYTASSLQSGVPSRFSGSGSGTDFTLTISSLQPEDFATYYCQQAHSLPITFGQGTRLGIK"
quantity_unit = "nM"
recorded_result = 10.8

